ASSAYED_TARGET: KRAS (aa 1-169) G12C, C51S, C80L, C118S (Homo sapiens (Human), UniProt P01116, C118S/C51S/C80L/G12C)
Sequence (P01116 other isoform, or with tags, fused parts or gaps G12C/C51S/C80L/C118S): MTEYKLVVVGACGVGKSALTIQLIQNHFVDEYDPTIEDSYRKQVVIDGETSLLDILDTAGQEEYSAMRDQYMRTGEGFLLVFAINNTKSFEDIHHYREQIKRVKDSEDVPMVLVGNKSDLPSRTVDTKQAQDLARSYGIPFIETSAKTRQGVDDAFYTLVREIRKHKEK
PROTOCOL_SUMMARY: Biochemical functional assay: SOS1-mediated nucleotide exchange of GDP-loaded KRAS G12C, binding to GST-cRaf RBD, FRET readout
APPLIED_CONDITIONS: 3 hrs pre-incubation with compound at 24° C., SOS1, GTPyS, inhibition of nucleotide exchange
# label = true (1) if IC50 < 1000 nM else false (0)

The examples below pair each entry with its known result.
- C=C(F)C(=O)N1CCN(c2nc(OC[C@@H]3CCCN3C)nc3cc(-c4cccc5cccc(Cl)c45)c4ccoc4c23)C[C@@H]1CC#N [Compound B41]: true (1)
- C=CC(=O)N1CCN(c2ncnc3cc(-c4cccc5ccccc45)c4c(c23)OC(C)(C)CC4)CC1 [Compound A1]: false (0)
- C=CC(=O)N1C[C@H](C)N(c2nc(OC[C@@H]3CCCN3C)nc3cc(-c4cccc5cccc(Cl)c45)c4ccoc4c23)C[C@H]1C [Compound B52]: true (1)
- C=C(F)C(=O)N1CCN(c2nc(OC[C@@H]3CCCN3C)nc3cc(-c4ccccc4C(F)(F)F)c4ccoc4c23)C[C@@H]1CC#N [Compound B40]: true (1)
- C=CC(=O)N1CCN(c2ncnc3cc(-c4c(C)ccc5[nH]ncc45)c4c(c23)OCCC4)CC1 [Compound A13]: false (0)

Query block: Please let me know if C=C(F)C(=O)N1CCN(c2nc(OC3COCC3N(C)C)nc3cc(-c4cccc5cccc(Cl)c45)c4c(c23)OCCC4)C[C@@H]1CC#N (some centres unmarked) [Compound B69] shows IC50 below 1000 nM.
Result block: false (0)

Query block: Also check C=C(F)C(=O)N1CCN(c2nc(OC3CN(C)C3)nc3cc(-c4cccc5cccc(Cl)c45)c4c(c23)OCCC4)C[C@@H]1CC#N [Compound B64]
Result block: true (1)

Query block: Also check C=C(F)C(=O)N1CCN(c2nc(OC[C@@H]3CCCN3C)nc3cc(-c4ccc(C(F)(F)F)cc4)c4ccoc4c23)C[C@@H]1CC#N [Compound B89]
Result block: true (1)
